ASSAYED TARGET: recombinant DYRK1A kinase (Homo sapiens (Human), UniProt Q13627)
EXPERIMENT DESCRIPTION: DYRK1A kinase assay (Ser/Thr 18 peptide Z-lyte FRET assay)
ASSAY CONTEXT: DYRK1A kinase activity; 15 μM ATP, 1 h room temperature; method text calls the value IC50
pEC50: −log10 of the molar value.
READOUT: pEC50

CC(C)CNc1ncc2c(-c3ccc4ncnn4c3)c[nH]c2n1 :: 8.16

(A) C[C@@H](Nc1ncc2c(-c3ccc4nccn4n3)c[nH]c2n1)C1CC1
(B) COc1nc(N[C@H]2CC[C@](C)(O)CC2)nc2[nH]cc(-c3ccc4nnn(C)c4c3)c12
(C) Fc1cc(-c2c[nH]c3nc(NCC4(F)CC4)ncc23)cn2ccnc12
Hey, quick one: sort these by pEC50, largest value first please. # the answer lists labels in the order requested
B, A, C

====

ASSAYED TARGET: recombinant DYRK1A kinase (Homo sapiens (Human))
EXPERIMENT DESCRIPTION: DYRK1A kinase assay (Ser/Thr 18 peptide Z-lyte FRET assay)
ASSAY CONTEXT: DYRK1A kinase activity; 15 μM ATP, 1 h room temperature; method text calls the value IC50
READOUT: EC50 (nM)

OCCO[C@H]1CC[C@@H](Nc2ncc3c(-c4cc(F)c5nccn5c4)c[nH]c3n2)CC1 :: 3.1

(A) FC1(CNc2ncc3c(-c4ccc5nccn5n4)c[nH]c3n2)CCC1
(B) Cc1nc2ccc(-c3c[nH]c4nc(NCC(C)(C)F)ncc34)nc2s1
(C) COc1nc(N[C@@H]2[C@@H]3COC[C@@H]32)nc2[nH]cc(-c3ccc4nnn(C)c4c3)c12 [Compound 3128]
(D) CC[C@H](C)Nc1ncc2c(-c3ccc4ncc(F)n4c3)c[nH]c2n1
(E) [2H]C([2H])([2H])O[C@H]1CC[C@@H](Nc2nc(OC)c3c(-c4ccc5nnn(C)c5c4)c[nH]c3n2)CC1
Hey, quick one: sort these by EC50, largest value first please. # the answer lists labels in the order requested
B, E, D, A, C

(a) COc1nc(NCC(C)(C)F)nc2[nH]cc(-c3cc(F)c4nccn4c3)c12
(b) COC[C@@H](C)Nc1nc(OC)c2c(-c3ccc4nnn(C)c4c3)c[nH]c2n1
(c) CC(C)Cc1ncc2c(-c3cnc4nccn4c3)c[nH]c2n1
(d) C[C@@H](Nc1ncc2c(-c3ccn4ncc(F)c4n3)c[nH]c2n1)C(F)(F)F
Hey, quick one: sort these by EC50, largest value first please. # the answer lists labels in the order requested
d, a, c, b

(A) Cc1cn2nc(-c3c[nH]c4nc(NCC(C)(C)F)ncc34)ccc2n1
(B) C[C@]1(O)CC[C@@H](Nc2ncc3c(-c4ccc5nccnc5c4)c[nH]c3n2)CC1
Please state the entry with greater EC50 among A and B . Identify your selection by its label.
A
(A: 9.3 nM, B: 2.6 nM)

====

ASSAYED TARGET: recombinant DYRK1A kinase (Homo sapiens (Human), UniProt Q13627)
EXPERIMENT DESCRIPTION: DYRK1A kinase assay (Ser/Thr 18 peptide Z-lyte FRET assay)
ASSAY CONTEXT: DYRK1A kinase activity; 15 μM ATP, 1 h room temperature; method text calls the value IC50
READOUT: EC50 (nM)

Study these solved cases before continuing.
COc1nc(N[C@H]2CC[C@@H](OC(F)F)CC2)nc2[nH]cc(-c3ccc4nc(C)n(CC(F)F)c4n3)c12 [Compound 2281] :: 269
COc1nc(NCC(C)(C)F)nc2[nH]cc(-c3ccn4nccc4n3)c12 [Compound 2325] :: 87
CO[C@H]1CC[C@@H](Nc2ncc3c(-c4ccc5nnn(C)c5c4)c[nH]c3n2)CC1 [Compound 838] :: 9.8
OCCO[C@H]1CC[C@@H](Nc2ncc3c(-c4ccc5nccnc5c4)c[nH]c3n2)CC1 [Compound 2229] :: 2.6
c1cn2cc(-c3c[nH]c4nc(C5CC5)ncc34)cnc2n1 [Compound 450] :: 16.1
CC1(CNc2ncc3c(-c4ccn5nccc5n4)c[nH]c3n2)CC1 [Compound 1658] :: 10.5
Cn1nnc2ccc(-c3c[nH]c4nc(N[C@H]5CC[C@@H](OCC(F)F)CC5)ncc34)cc21 [Compound 2192] :: 6.9
Cc1nc2ccc(-c3c[nH]c4nc(NCC(C)(C)F)ncc34)nc2n1CC(F)F [Compound 643] :: 42.8

(a) C[C@@H](Nc1ncc2c(-c3ccn4ncnc4c3)c[nH]c2n1)C(F)(F)F [Compound 806]
(b) O=C(c1cnn2ccc(-c3c[nH]c4nc(C5CCC5)ncc34)cc12)N1CCCCC1 [Compound 1205]
Given the listed items, does a or b have the lesser reported EC50? Identify your selection by its label.
a
